Literature survey of Ki (system: the protein given by its sequence).
Target sequence: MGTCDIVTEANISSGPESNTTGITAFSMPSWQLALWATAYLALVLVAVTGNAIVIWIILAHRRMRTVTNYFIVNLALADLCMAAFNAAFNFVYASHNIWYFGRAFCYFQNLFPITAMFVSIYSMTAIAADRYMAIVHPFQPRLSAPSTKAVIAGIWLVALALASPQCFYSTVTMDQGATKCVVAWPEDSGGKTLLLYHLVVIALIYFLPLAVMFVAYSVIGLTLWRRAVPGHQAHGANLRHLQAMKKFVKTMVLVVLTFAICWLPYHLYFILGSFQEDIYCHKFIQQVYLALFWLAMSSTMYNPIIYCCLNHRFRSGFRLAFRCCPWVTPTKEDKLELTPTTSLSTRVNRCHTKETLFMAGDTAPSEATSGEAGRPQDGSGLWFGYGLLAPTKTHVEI
Please respond with the number in nM and leave the unit unwritten.

Recorded Ki, per entry:
1) CO/N=C(\COCc1cc(C(F)(F)F)cc(C(F)(F)F)c1)C(CCN1CCC(N2CCCC2=S)CC1)c1ccc(Cl)c(Cl)c1 (centres undefined) | 23
2) CC[C@H](NC(=O)c1cc(-c2ccccc2)nc2ccccc12)c1ccccc1 | 237
3) O=C(O)CCC(=O)N[C@H]1CC(=O)N[C@@H](Cc2c[nH]c3ccccc23)C(=O)N[C@@H](Cc2ccccc2)C(=O)N[C@H](Cc2ccccc2)CNC1=O | 12.6

Now for another entry.
# input Note down Ki recorded for CO/N=C(\COCc1cc(C(F)(F)F)cc(C(F)(F)F)c1)C(CCN1CCNCC1)c1ccc(Cl)c(Cl)c1 (centres undefined)
# output 738

###

Literature survey of pKi (system: Substance-K receptor (Homo sapiens, UniProt P21452)).
Reminder that pKi means the negative base-10 logarithm of the concentration expressed in mol/L.

Recorded pKi, per entry:
1. O=C(NCCCN1CCOCC1)[C@@H](Cc1ccccc1)NC(=O)N1CCC(Cc2ccccc2)CC1 | 5.70
2. CO/N=C(\COCc1cc(C(F)(F)F)cc(C(F)(F)F)c1)C(CCN1CCN(CC(=O)N(C)C2CCCCC2)CC1)c1ccc(Cl)c(Cl)c1 (stereo not given) | 6.43
3. CCCCN(CCCC)CCCNC(=O)[C@@H](Cc1ccccc1)NC(=O)C1(NC(=O)c2cc3ccccc3s2)CCc2ccccc21 (stereo in doubt; 45b) | 8.80
4. CN(C)CCN(C)C(=O)c1nccnc1C(=O)N[C@@H]1CC(=O)N[C@@H](Cc2c[nH]c3ccccc23)C(=O)N[C@@H](Cc2ccccc2)C(=O)N[C@H](Cc2ccccc2)CNC1=O | 8.70
5. CC(C)[C@H](NC(=O)c1c(CN2CCN(C(C)C)CC2)c(-c2ccccc2)nc2ccccc12)c1ccccc1 | 8.82

Now for another entry.
# input Look up and report pKi, with Substance-K receptor (Homo sapiens, UniProt P21452) as system, for O=C(NC1(C(=O)N[C@@H](Cc2ccccc2)C(=O)NCC2CCN(CC3CCOCC3)CC2)CCCC1)c1ccc(-n2cccc2)cc1F
# output 8.49

###

Protein target, amino acids: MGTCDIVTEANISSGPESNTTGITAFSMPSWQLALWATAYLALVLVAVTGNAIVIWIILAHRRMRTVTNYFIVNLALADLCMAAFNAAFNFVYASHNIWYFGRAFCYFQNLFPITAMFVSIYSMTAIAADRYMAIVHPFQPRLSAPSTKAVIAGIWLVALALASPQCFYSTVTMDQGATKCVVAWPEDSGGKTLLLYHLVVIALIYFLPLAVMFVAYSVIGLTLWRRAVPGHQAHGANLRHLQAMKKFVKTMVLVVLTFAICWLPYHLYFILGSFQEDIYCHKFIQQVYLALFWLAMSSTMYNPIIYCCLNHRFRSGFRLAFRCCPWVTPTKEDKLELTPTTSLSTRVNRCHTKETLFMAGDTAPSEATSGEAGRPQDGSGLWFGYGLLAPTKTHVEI
Literature survey of pKi (system: the protein given by its sequence).
Reminder that pKi means the negative base-10 logarithm of the concentration expressed in mol/L.

Recorded pKi, per entry:
1. C[C@H](NC(=O)c1c(CN2CCC(N3CCCCC3)CC2)c(-c2ccccc2)nc2ccccc12)C(C)(C)C | 9.00
2. CO/N=C(\COCc1cc(C(F)(F)F)cc(C(F)(F)F)c1)C(CCN1CCC(N2CCCCC2=O)CC1)c1ccc(Cl)c(Cl)c1 (stereo unspecified) | 8.40
3. Cc1ccc2cc(C(=O)NC3(C(=O)N[C@@H](CCCN4CCN(c5ccccn5)CC4)Cc4ccccc4)CCCC3)sc2c1 | 9.20
4. CC(C)(Oc1ccc(Cl)cc1)C(=O)N[C@@H](Cc1ccccc1)C(=O)NCCCN1CCOCC1 | 5.80
5. COc1ccc2oc(C(=O)NC3(C(=O)N[C@@H](CCCN4CCN(CC5CCOCC5)CC4)Cc4ccccc4)CCCC3)cc2c1 | 9.20
6. Cc1ccc2cc(C(=O)NC3(C(=O)N[C@@H](CCCN4CCN(Cc5cnc[nH]5)CC4)Cc4ccccc4)CCCC3)sc2c1 | 9.00
7. CO/N=C(\COCc1cc(C(F)(F)F)cc(C(F)(F)F)c1)C(CCN1CCC(CN2CCCCC2=O)CC1)c1ccc(Cl)c(Cl)c1 (stereo unspecified) | 7.92
8. NCc1ccc(CNC(=O)[C@H](Cc2ccccc2)NC(=O)C2(NC(=O)c3cc4ccccc4s3)CCCCC2)cc1 | 6.90
9. O=C1CCC(=O)N[C@@H](Cc2c[nH]c3ccccc23)C(=O)N[C@@H](Cc2ccccc2)C(=O)N[C@H](CCc2ccccc2)CN1 | 8.00
10. O=C1CCC(=O)N[C@@H](Cc2c[nH]c3ccccc23)C(=O)N[C@@H](Cc2ccccc2)C(=O)NCCN1 | 5.90

# input Look up and report pKi, with the protein given by its sequence as system, for O=C1C[C@H](N2CCOCC2)C(=O)NC[C@@H](Cc2ccccc2)NC(=O)[C@H](Cc2ccccc2)NC(=O)[C@H](Cc2c[nH]c3ccccc23)N1
# output 9.10

# input Look up and report pKi, with the protein given by its sequence as system, for O=C(NC1(C(=O)N[C@H](Cc2ccccc2)C(=O)NCCCN2CCOCC2)Cc2ccccc2C1)c1cc2ccccc2s1
# output 8.70

# input Look up and report pKi, with the protein given by its sequence as system, for CC(C)c1ccc(Oc2ccc(NC(=O)N[C@@H](Cc3ccccc3)C(=O)NCCCN3CCOCC3)cc2)cc1
# output 7.20

# input Look up and report pKi, with the protein given by its sequence as system, for CO/N=C(\COCc1cc(C(F)(F)F)cc(C(F)(F)F)c1)C(CCN1CCC(CN2CCCC(CC3CC3)C2=O)CC1)c1ccc(Cl)c(Cl)c1 (stereo unspecified)
# output 7.59

# input Look up and report pKi, with the protein given by its sequence as system, for CC[C@@H](NC(=O)c1cc(-c2ccccc2)nc2ccccc12)c1ccccc1
# output 6.63

# input Look up and report pKi, with the protein given by its sequence as system, for Cc1ccc(COc2ccc(NC(=O)N[C@@H](Cc3ccccc3)C(=O)NCCCN3CCOCC3)cc2)cc1
# output 6.10

# input Look up and report pKi, with the protein given by its sequence as system, for CC[C@@H](NC(=O)c1c(N)c(-c2ccccc2)nc2ccccc12)c1ccccc1
# output 6.95

# input Look up and report pKi, with the protein given by its sequence as system, for C[C@H](NC(=O)c1c(CN2CCOCC2)c(-c2ccccc2)nc2ccccc12)C1CCCCC1
# output 8.21
